Assay: HepG2 cell viability effects, profiling panel, calcein-AM fluorescence, 48 h, basal (AID 1164)
Details: higher = more signal
Use yes (1) when the recorded z-score is no lower than 0.3; use no (0) when it is lower.

Reference set, count: 5
• CCCCC(=C=CC[C@H](O)c1ccc(OCCO)cc1)C[C@H](O)c1ccccn1 = yes (1)
• COc1cc2c(cc1O)C(C1CC1)N(Cc1ccc([N+](=O)[O-])o1)CC2 (configuration not stated) = no (0)
• CC(C)[Si](C#CCCCC#N)(O[C@H](c1ccccc1)c1cn([C@H](C)c2ccccc2)nn1)C(C)C = yes (1)
• CC(C)CNC(=O)[C@@H]1c2ccccc2C(=O)N(Cc2ccccc2Cl)[C@H]1c1ccc(CO)cc1 = no (0)
• CN(C)CCCNC(=O)[C@@]1(Cc2ccccc2I)c2ccccc2C(=O)N(Cc2ccccc2)[C@H]1c1ccc(CO)cc1 = no (0)

Textbook exercise: given the entry `COc1ccccc1CN1C(=O)c2ccccc2[C@@H](C(=O)NCCCN(C)C)[C@@H]1c1ccc(CO)cc1` , state whether its z-score is greater than or equal to 0.3.
yes (1)

Textbook exercise: given the entry C=CC(CO)NC(=O)OCC1c2ccccc2-c2ccccc21 (configuration not stated) , state whether its z-score is greater than or equal to 0.3.
no (0)

Textbook exercise: given the entry `CC(C)CNC(=O)[C@@H]1c2ccccc2C(=O)N(C(C)C)[C@H]1c1ccc(CO)cc1` , state whether its z-score is greater than or equal to 0.3.
yes (1)

Textbook exercise: given the entry `CC(=O)NCCCC[C@@H]1NC(=O)[C@H]2C[C@@H](C(=O)NCCCCCC[N+](C)(C)C)[C@@H](c3ccc(O)cc3)N2C1=O` , state whether its z-score is greater than or equal to 0.3.
no (0)

Textbook exercise: given the entry CCCCC(O)C1C=CC2C(=O)NC(=O)C2N1Nc1ccc(Cl)cc1Cl (configuration not stated) , state whether its z-score is greater than or equal to 0.3.
no (0)

Textbook exercise: given the entry `CCCCC(=C=CC[C@@H](O)c1cccc(OCCO)c1)C[C@@H](O)COCc1ccccc1` , state whether its z-score is greater than or equal to 0.3.
yes (1)

Textbook exercise: given the entry C=CCC(OC(C)=O)[C@@H]1[C@@H](N(Cc2ccc(-c3cccc(C(F)(F)F)c3)o2)C(=O)c2cccc3ccccc23)c2cc(OCCCO)ccc2N1C(=O)c1ccc2ccccc2n1 (some centres not stated) , state whether its z-score is greater than or equal to 0.3.
no (0)

Textbook exercise: given the entry `O=C1O[C@@H](c2ccccc2)[C@@H](c2ccccc2)N2[C@@H](c3ccc(OCCO)cc3)[C@]3(C(=O)Nc4ccc(C#CCCO)cc43)[C@@H](C(=O)Nc3nc4ccccc4s3)[C@H]12` , state whether its z-score is greater than or equal to 0.3.
no (0)

Textbook exercise: given the entry O=C1OCCC=C[C@H]2OC34C=CCN(CCN5CCOCC5)C(=O)[C@H]3N(CCCO)C(=O)[C@@H]4C12 (some centres not stated) , state whether its z-score is greater than or equal to 0.3.
no (0)

Textbook exercise: given the entry `CC(C)CNC(=O)[C@@]1(C)c2ccccc2C(=O)N(Cc2cc(F)cc(C(F)(F)F)c2)[C@H]1c1ccc(CO)cc1` , state whether its z-score is greater than or equal to 0.3.
no (0)

Textbook exercise: given the entry O=C1C2C=CC(C(O)C(c3ccccc3)c3ccccc3)N(Nc3ccccc3)C2C(=O)N1c1ccccc1 (configuration not stated) , state whether its z-score is greater than or equal to 0.3.
yes (1)

Textbook exercise: given the entry `C=C(/C(=C/C[C@@H](OC(C)=O)c1ccccc1OCCO)c1cc(C(=O)OC)ccc1OC)C(C)C` , state whether its z-score is greater than or equal to 0.3.
yes (1)

Textbook exercise: given the entry `[N-]=[N+]=NCc1ccccc1C[C@]1(C(=O)N2CCOCC2)N=C(c2ccc(OCCCO)cc2)O[C@H]1c1ccccc1CN=[N+]=[N-]` , state whether its z-score is greater than or equal to 0.3.
yes (1)

Textbook exercise: given the entry `C=C(CCCC)C(=O)CC[C@H](OC(=O)c1cccnc1)c1ccc(CO)o1` , state whether its z-score is greater than or equal to 0.3.
no (0)

Textbook exercise: given the entry `CCCC[C@@H]1C[C@H]1[C@@H](NC(=O)c1ccc(C(F)(F)F)cc1)c1ccc(C(=O)OC)cc1` , state whether its z-score is greater than or equal to 0.3.
no (0)

Textbook exercise: given the entry CCCCN1CC=CC23O[C@@H]4/C=C\CCC(C)OC(=O)C4[C@H]2C(=O)N(C(C)CO)[C@@H]3C1=O (some centres not stated) , state whether its z-score is greater than or equal to 0.3.
no (0)

Textbook exercise: given the entry `NC(=O)[C@@]1(CCS(=O)(=O)c2ccccc2)COC(c2ccc(OCCCO)cc2)=N1` , state whether its z-score is greater than or equal to 0.3.
yes (1)

Textbook exercise: given the entry `C[C@]1(C(=O)NCC(F)(F)F)c2ccccc2C(=O)N(Cc2ccc(OC(F)(F)F)cc2)[C@H]1c1ccc(CO)cc1` , state whether its z-score is greater than or equal to 0.3.
yes (1)

----------
Reported composite z-score by item:
Tested on: Human papillomavirus type 1a protein E7 (residues 44-93)
Assay: HPV1a E7 fragment binders on microarrays, primary screen, biochemical, small-molecule microarray, residues 44-93, 635 nm fluorescence (AID 1108);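 also: E7 fragment applied at 1 µg/mL in TBST for 1 h at 4 C; score combines spot fluorescence with its signal to noise ratio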
Settings: small-molecule microarray binding, fluorescence 635 nm; higher = more signal
Could you respond with only the numeric value?

Item under review: `[N-]=[N+]=NCc1ccccc1C[C@]1(C(=O)N2CCOCC2)N=C(c2ccc(OCCCO)cc2)O[C@H]1c1ccccc1CN=[N+]=[N-]` . Reported composite z-score?
0.344

Item under review: `C=C(COC)/C(=C/C[C@@H](OC(C)=O)c1ccccc1OCCO)c1cc(C(=O)OC)ccc1OC` . Reported composite z-score?
1.3

Item under review: `[N-]=[N+]=NCc1ccccc1C[C@@]1(C(=O)O)N=C(c2ccc(OCCCO)cc2)O[C@@H]1c1ccccc1CN=[N+]=[N-]` . Reported composite z-score?
1.39

----------
Reported z-score by item:
Assay: MM1S cell viability effects, profiling panel, calcein-AM fluorescence, 48 h, basal (AID 1165);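 also: viability of MM1S multiple myeloma cells under basal unstimulated conditions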
Conditions: higher = more signal
Could you respond with only the numeric value?

Consider the worked cases shown below.
• CCCC[C@@H]1C[C@H]1[C@@H](NC(=O)c1ccc(C(F)(F)F)cc1)c1ccc(C(=O)OC)cc1 = -1.97
• CC(C)C[C@@H]1NC(=O)[C@@H]2C[C@H](C(=O)NCCCC[N+](C)(C)C)[C@H](c3ccc(O)cc3)N2C1=O = -0.104
• CN(C)C(=O)[C@]1(Cc2ccccc2CN=[N+]=[N-])N=C(c2ccc(OCCCO)cc2)O[C@@H]1c1ccccc1N=[N+]=[N-] = -1.33
• COC(=O)C1=CC(CCCO)=CC(C2CC2)N(Cc2cccc(OC(F)(F)F)c2)C=C1C(=O)OC (stereo not given) = -0.525
• COC(=O)C1=CC(CCCO)=CC(c2ccc(CN3CCCC3)cc2)N(Cc2sc3ccccc3c2Cl)C=C1C(=O)OC (stereo not given) = 0.217
• [N-]=[N+]=NCc1ccccc1[C@@H]1OC(c2ccc(OCCCO)cc2)=N[C@]1(Cc1ccccc1)C(=O)NCc1ccccc1 = -0.856
• C=CCNC(=O)[C@H]1[C@@H]2C(=O)O[C@@H](c3ccccc3)[C@@H](c3ccccc3)N2[C@@H](c2ccc(O)cc2)[C@]12C(=O)Nc1ccc(C#CC3=CCCCC3)cc12 = -3.3
• CCOC(=O)C1=CC[C@@H](c2ccccc2)N(S(=O)(=O)c2ccc(C)cc2)[C@H]1C#N = -3.21

Item under review: `O=C1N(Cc2ccccc2)c2ccccc2[C@H]2OC(c3ccc(OCCCO)cc3)=N[C@@]12Cc1ccccc1` . Reported z-score?
-2.75

Item under review: `NC(=O)NCC#Cc1ccc2c(c1)[C@]1(C(=O)N2)[C@H](C(=O)N2CCCCCCC2)[C@H]2C(=O)O[C@H](c3ccccc3)[C@H](c3ccccc3)N2[C@@H]1c1ccc(O)cc1` . Reported z-score?
-0.499

----------
System: XIP peptide (Xip251-270)
Experiment: small-molecule binders of XIP peptide, primary screen, biochemical, small-molecule microarray, fluorescence 635/667 nm, 0.5 µg/mL protein (AID 1183)
Conditions: small-molecule microarray binding, fluorescence 635 nm; higher = more signal
Use MET when the recorded composite z-score is no lower than 0.2; use NOT MET when it is lower.

Reference set, count: 3
- C=CCNC(=O)[C@@H]1[C@H]2C(=O)O[C@H](c3ccccc3)[C@H](c3ccccc3)N2[C@H](c2ccc(O)cc2)[C@@]12C(=O)Nc1ccc(C#CC3(O)CCCCCC3)cc12: NOT MET
- COC(=O)[C@@]1(Cc2ccccc2CN=[N+]=[N-])COC(c2ccc(OCCCO)cc2)=N1: MET
- NC(=O)[C@@]1(CCS(=O)(=O)c2ccccc2)COC(c2ccc(OCCCO)cc2)=N1: NOT MET

Textbook exercise: given the entry COC(=O)C1=CC(CCCO)=CC(c2ccc(CN3CCCC3)cc2)N(Cc2sc3ccccc3c2Cl)C=C1C(=O)OC (stereo not drawn) , state whether its composite z-score is greater than or equal to 0.2.
MET

Textbook exercise: given the entry CCCCC(O)C1C=CC2C(=O)N(C)C(=O)C2N1Nc1ccccc1 (stereo not drawn) , state whether its composite z-score is greater than or equal to 0.2.
NOT MET

Textbook exercise: given the entry `CC(C)C[C@@H]1NC(=O)[C@H]2C[C@@H](C(=O)NCCCCCCNC(=O)CS)[C@@H](c3ccc(O)cc3)N2C1=O` , state whether its composite z-score is greater than or equal to 0.2.
MET

Textbook exercise: given the entry `COC(=O)[C@@]1(Cc2ccc(OC)cc2)[C@H]2c3cc(C(=O)N(C)C)n(Cc4ccsc4Br)c3C[C@H]2CN1C(=O)c1ccccc1` , state whether its composite z-score is greater than or equal to 0.2.
MET

Textbook exercise: given the entry `COCCOC(=O)N1C(=O)[C@@]2(c3ccccc31)[C@H](c1ccc(OCCO)cc1)N1[C@H](c3ccccc3)[C@H](c3ccccc3)OC(=O)[C@H]1[C@@H]2C(=O)N1CCN(c2ncccn2)CC1` , state whether its composite z-score is greater than or equal to 0.2.
MET
